- tgt: FPR1 (Homo sapiens)
- Construct: expressed in transfected cells; host or cells: HEK-Gqi5 (HEK cells with chimeric G protein Gqi5)
- Sequence (P21462 whole entry, species assumed): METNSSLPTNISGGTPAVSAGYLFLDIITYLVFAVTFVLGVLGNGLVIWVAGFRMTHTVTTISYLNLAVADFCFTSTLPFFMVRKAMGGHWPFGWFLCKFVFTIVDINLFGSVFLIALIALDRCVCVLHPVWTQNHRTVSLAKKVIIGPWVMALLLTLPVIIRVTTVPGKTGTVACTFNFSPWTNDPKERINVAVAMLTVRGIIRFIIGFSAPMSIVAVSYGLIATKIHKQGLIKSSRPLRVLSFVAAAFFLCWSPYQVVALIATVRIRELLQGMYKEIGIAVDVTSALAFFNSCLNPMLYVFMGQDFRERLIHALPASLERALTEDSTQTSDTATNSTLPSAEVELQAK
- experimental_details: compound-induced calcium activity on FLIPR Tetra in HEK-Gqi5 cells stable expressing FPR1
- Assay type: cell-based
- experimental_context: class symbol NA, read-out: FPR1 EC50 (NA = Not Active)
quantity_measured: EC50

CCc1ccc(NC(=O)[C@H]2[C@@H](C(=O)O)[C@H]3CC[C@@H]2C32CC2)cc1 (racemic) = > 10 µM

For O=C(O)[C@@H]1[C@H](C(=O)Nc2ccc3c(c2)oc2ccccc23)[C@@H]2CC[C@H]1C21CC1 (racemic) , what is its reported EC50?
> 10 µM

What do you have for O=C(O)C1C(C(=O)Nc2ccc(O)cc2)C2C=CC1C21CC1 (racemic) ?
> 10 µM

One more compound: N=C[C@@H]1[C@H](C(=O)Nc2ccccc2)[C@@H]2CC[C@H]1C21CC1 (racemic)
> 10 µM

###

- tgt: FPRL1 (Homo sapiens, UniProt P25090)
- Construct: expressed in transfected cells; host or cells: CHO-Gal6 (CHO cells with G alpha 16)
- Sequence (P25090 whole entry, species assumed): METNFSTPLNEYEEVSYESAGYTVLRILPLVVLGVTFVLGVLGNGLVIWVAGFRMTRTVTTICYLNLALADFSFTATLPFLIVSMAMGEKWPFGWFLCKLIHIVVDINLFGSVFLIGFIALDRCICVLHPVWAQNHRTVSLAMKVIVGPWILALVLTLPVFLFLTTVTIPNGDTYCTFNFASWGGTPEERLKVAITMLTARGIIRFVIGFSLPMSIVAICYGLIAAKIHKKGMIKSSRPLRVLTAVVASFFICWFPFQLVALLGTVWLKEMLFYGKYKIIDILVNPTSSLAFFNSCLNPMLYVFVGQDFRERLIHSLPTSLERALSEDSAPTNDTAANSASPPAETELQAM
- experimental_details: compound-induced calcium activity on FLIPR Tetra in CHO-Gal6 cells stably expressing FPRL1
- Format: cell-based
- experimental_context: relative efficacy, calcium, FLIPR Tetra
quantity_measured: FPRL1 (rel. eff.)

CC1(C)C2CCC1C(C(=O)Nc1ccc(I)cc1)C2C(N)=O (racemic) = 0.82
CC(=O)c1ccc(NC(=O)[C@H]2[C@@H](C(=O)O)[C@H]3CC[C@@H]2C32CC2)cc1 (racemic) = 0.71
O=C(O)C1C(C(=O)Nc2ccc(Cl)c(Cl)c2)C2C=CC1C21CC1 (racemic) = 0.70
C[S+]([O-])c1ccc(NC(=O)C2C(C(=O)O)C3CCC2C32CC2)cc1 (racemic) [Compound 70] = 0.95
O=C(Nc1ccc(Br)cc1)[C@H]1[C@@H](CO)[C@H]2CC[C@@H]1C21CC1 (racemic) = 0.76
C[S+]([O-])c1ccc(NC(=O)C2C(C(=O)O)C3CCC2C32CC2)cc1 (racemic) [Compound 44] = 0.95
CC1(C)[C@@H]2CC[C@H]1[C@@H](C(=O)Nc1ccc(I)cc1)[C@H]2C(N)=O (racemic) = 0.81
O=C(O)[C@@H]1[C@H](C(=O)Nc2ccc(Cl)c(Cl)c2)[C@@H]2CC[C@H]1C21CC1 (racemic) = 1.00
CCc1ccc(NC(=O)[C@H]2[C@@H](C(N)=O)[C@H]3CC[C@@H]2C32CC2)cc1 (racemic) [Compound 68] = 1.0
O=C(NCCO)[C@@H]1[C@H](C(=O)Nc2ccc(Br)cc2)[C@@H]2CC[C@H]1C21CC1 (racemic) = 0.86
O=C(O)C1=C(C(=O)Nc2ccc(Br)cc2)C2C=CC1C21CC1 (racemic) = 0.92
CCc1ccc(NC(=O)[C@H]2[C@@H](C(N)=O)[C@H]3CC[C@@H]2C3(C)C)cc1 (racemic) [Compound 65] = 0.95
COC(=O)C1C(C(=O)Nc2ccc(I)cc2)C2C=CC1C21CC1 (racemic) = 0.72
Cc1cc(Br)cc(C)c1NC(=O)[C@@H]1[C@H](C(=O)O)[C@@H]2CC[C@H]1C21CC1 (racemic) = 0.67
N#C[C@@H]1[C@H](C(=O)Nc2ccc(Br)cc2)[C@@H]2CC[C@H]1C21CC1 (racemic) = 0.82
CC(C)=C1[C@H]2C=C[C@@H]1[C@H](C(=O)O)[C@@H]2C(=O)Nc1ccc(Br)cc1 (racemic) = 0.96
NC(=O)C1C(C(=O)Nc2ccc(I)cc2)C2C=CC1C21CC1 (racemic) [Compound 69] = 0.87
CC(=O)c1ccc(NC(=O)C2C(C(=O)O)C3C=CC2C32CC2)cc1 (racemic) = 0.96
O=C(O)[C@@H]1[C@H](C(=O)Nc2ccc3c(c2)oc2ccccc23)[C@@H]2CC[C@H]1C21CC1 (racemic) = 0.9
NC(=O)c1ccc(NC(=O)C2C(C(=O)O)C3CCC2C32CC2)cc1 (racemic) = 0.67
CC(C)=C1[C@H]2C=C[C@@H]1[C@@H](C(=O)O)[C@H]2C(=O)Nc1ccc(Br)cc1 (racemic) = 0.77
O=C(O)C1C(C(=O)Nc2ccc(Br)cc2)C2CCC1C21CC1 (single isomer, unassigned) [Compound 10B] = 0.98
CC1(C)[C@@H]2CC[C@H]1[C@@H](C(=O)Nc1ccc(Cl)cc1)[C@H]2C(=O)O (racemic) = 0.86
O=C(O)C1C(C(=O)Nc2cccc(C(F)(F)F)c2)C2CCC1C21CC1 (racemic) = 0.86
